# target: T1, human CRH receptor type 2 (human, UniProt Q13324 1-411)
# T1 sequence (looked up): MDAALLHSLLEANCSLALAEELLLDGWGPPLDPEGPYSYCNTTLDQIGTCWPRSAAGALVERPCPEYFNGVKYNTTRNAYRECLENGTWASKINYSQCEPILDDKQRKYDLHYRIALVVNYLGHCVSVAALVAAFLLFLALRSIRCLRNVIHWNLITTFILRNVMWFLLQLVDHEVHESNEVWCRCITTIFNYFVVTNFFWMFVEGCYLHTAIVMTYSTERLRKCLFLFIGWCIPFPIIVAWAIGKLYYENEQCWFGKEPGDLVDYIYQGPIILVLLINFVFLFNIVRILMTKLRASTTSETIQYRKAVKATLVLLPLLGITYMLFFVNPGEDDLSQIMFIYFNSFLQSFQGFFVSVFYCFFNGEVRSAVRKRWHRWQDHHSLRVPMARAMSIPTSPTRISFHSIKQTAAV
# method_summary: cell-based or functional assay
reported_metric: Log DR against h-SCP, cAMP

Given item TKFTLSLDVPTNIMNLLFNIAKACNLRAQAAANAHLMAQI (NES-PEG (about 20 kDa) on Cys 24; C-terminal amide) [Pegylated Cys-variant CRHR2 peptide agonist (NES linker, PEG about 20 kDa), SEQ ID NO: 78] , the value recorded as its Log DR against h-SCP, cAMP is ~1.52 log10 ratio

Given item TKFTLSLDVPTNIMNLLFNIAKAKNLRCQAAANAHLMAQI (NES-PEG MW12000 on Cys 28; C-terminal amide) [Pegylated Cys-variant CRHR2 peptide agonist (NES-PEG MW12000), SEQ ID NO: 97] , the value recorded as its Log DR against h-SCP, cAMP is ~0.74 log10 ratio

Given item TKFTLSLDVPTNIMNCLFNIAKAKNLRAQAAANAHLMAQI (NES-PEG (about 20 kDa) on Cys 16; C-terminal amide) [Pegylated Cys-variant CRHR2 peptide agonist (NES linker, PEG about 20 kDa), SEQ ID NO: 70] , the value recorded as its Log DR against h-SCP, cAMP is ~2.07 log10 ratio

Given item TKFTCSLDVPTNIMNLLFNIAKAKNLRAQAAANAHLMAQI (NES-PEG (about 20 kDa) on Cys 5; C-terminal amide) [Pegylated Cys-variant CRHR2 peptide agonist (NES linker, PEG about 20 kDa), SEQ ID NO: 59] , the value recorded as its Log DR against h-SCP, cAMP is ~2.32 log10 ratio

Data credit: patent US20100130424A1
